# Assayed target: human TOP1 (Homo sapiens, UniProt P11387)
# Construct: made in house; host or cells: Saccharomyces cerevisiae TOP1 null strain RS190, plasmid pHT143 (GAL promoter)
# Procedure details: TOP1 supercoiled plasmid DNA relaxation assay
# Format: biochemical
# Details: 3 min reaction; compounds at 100 μM; semiquantitative
Readout name: TOP1 Inhibition 3 min

Here is how some compounds turned out for TOP1 Inhibition 3 min.
>  <Compound>
O=P(c1ccccc1)(c1ccccc1)c1ccc2nc(-c3ccc(F)cc3F)c3c(c2c1)-c1ccccc1C3

>  <TOP1 Inhibition 3 min>
++

$$$$
>  <Compound>
O=C1c2ccccc2-c2c1c(-c1ccccc1)nc1ccc(P(=O)(c3ccccc3)c3ccccc3)cc21 [Compound 10a]

>  <TOP1 Inhibition 3 min>
++

$$$$
>  <Compound>
O=P(c1ccccc1)(c1ccccc1)c1ccc2c(c1)C1c3ccccc3CC1C(c1ccc(F)cc1)N2 (stereo not drawn)

>  <TOP1 Inhibition 3 min>
++

$$$$
>  <Compound>
O=P(c1ccccc1)(c1ccccc1)c1ccc2nc(-c3ccc(Br)cc3)c3c(c2c1)-c1ccccc1C3

>  <TOP1 Inhibition 3 min>
+ (weak inhibition)

$$$$

### Prompt // lookup TOP1 Inhibition 3 min for O=C1c2ccccc2-c2c1c(-c1cccc(F)c1)nc1ccc(P(=O)(c3ccccc3)c3ccccc3)cc21 [Compound 10d]
### Response + (weak inhibition)

### Prompt // lookup TOP1 Inhibition 3 min for O=P(c1ccccc1)(c1ccccc1)c1ccc2c(c1)C1c3ccccc3CC1C(c1cccc(F)c1)N2 (stereo not drawn)
### Response ++

### Prompt // lookup TOP1 Inhibition 3 min for O=P(c1ccccc1)(c1ccccc1)c1ccc2nc(-c3cccc4ccccc34)c3c(c2c1)-c1ccccc1C3
### Response ++

### Prompt // lookup TOP1 Inhibition 3 min for O=C1c2ccccc2-c2c1c(-c1cccc3ccccc13)nc1ccc(P(=O)(c3ccccc3)c3ccccc3)cc21 [Compound 10g]
### Response + (weak inhibition)

* * *

Listing of entries alongside the reported IC50.
# Test system: A549 (carcinomic human alveolar basal epithelial cell)
# Procedure details: CCK-8 cytotoxicity assay, A549
# Format: cell-based
# Details: Homo sapiens, A549, 48 h, A549 cells, 48h, CCK-8

Here is how some compounds turned out for IC50.
>  <Compound>
O=P(c1ccccc1)(c1ccccc1)c1ccc2nc(-c3ccc(F)cc3)c3c(c2c1)-c1ccccc1C3

>  <IC50>
> 50 µM

$$$$
>  <Compound>
O=C1c2ccccc2-c2c1c(-c1ccc(C(F)(F)F)cc1)nc1ccc(P(=O)(c3ccccc3)c3ccccc3)cc21 [Compound 10b]

>  <IC50>
> 50 µM

$$$$
>  <Compound>
O=[N+]([O-])c1ccc(C2Nc3ccc(P(=O)(c4ccccc4)c4ccccc4)cc3C3c4ccccc4CC23)cc1 (stereo not drawn)

>  <IC50>
> 50 µM

$$$$
>  <Compound>
O=P(c1ccccc1)(c1ccccc1)c1ccc2nc(-c3cccc4ccccc34)c3c(c2c1)-c1ccccc1C3

>  <IC50>
> 50 µM

$$$$
>  <Compound>
O=P(c1ccccc1)(c1ccccc1)c1ccc2nc(-c3cccc(F)c3)c3c(c2c1)-c1ccccc1C3

>  <IC50>
> 50 µM

$$$$
>  <Compound>
COc1cccc(-c2nc3ccc(P(=O)(c4ccccc4)c4ccccc4)cc3c3c2Cc2ccccc2-3)c1

>  <IC50>
> 50 µM

$$$$
>  <Compound>
CC[C@@]1(O)C(=O)OCc2c1cc1n(c2=O)Cc2cc3ccccc3nc2-1 [CPT, camptothecin, reference compound]

>  <IC50>
0.001 µM

$$$$
>  <Compound>
O=C1c2ccccc2-c2c1c(-c1ccc(F)c(F)c1)nc1ccc(P(=O)(c3ccccc3)c3ccccc3)cc21 [Compound 10e]

>  <IC50>
> 50 µM

$$$$
>  <Compound>
O=P(c1ccccc1)(c1ccccc1)c1ccc2nc(-c3ccc(F)cc3F)c3c(c2c1)-c1ccccc1C3

>  <IC50>
41.7 µM

$$$$
>  <Compound>
O=P(c1ccccc1)(c1ccccc1)c1ccc2c(c1)C1c3ccccc3CC1C(c1ccc(F)c(F)c1)N2 (stereo not drawn)

>  <IC50>
> 50 µM

$$$$

### Prompt // lookup IC50 for O=P(c1ccccc1)(c1ccccc1)c1ccc2nc(-c3ccc(Br)cc3)c3c(c2c1)-c1ccccc1C3
### Response 42.3 µM

### Prompt // lookup IC50 for O=P(c1ccccc1)(c1ccccc1)c1ccc2c(c1)C1c3ccccc3CC1C(c1ccccc1)N2 (stereo not drawn)
### Response 40.2 µM

* * *

# Test system: A549 (carcinomic human alveolar basal epithelial cell)
# Procedure details: CCK-8 cytotoxicity assay, A549
# Format: cell-based
# Details: Homo sapiens, A549, 48 h, A549 cells, 48h, CCK-8
pIC50: −log10 of the molar value.
Readout name: pIC50

Here is how some compounds turned out for pIC50.
>  <Compound>
O=P(c1ccccc1)(c1ccccc1)c1ccc2c(c1)C1c3ccccc3CC1C(c1cccc(F)c1)N2 (stereo not shown)

>  <Readout name>
pIC50

>  <Recorded measurement>
4.37

$$$$
>  <Compound>
O=C1c2ccccc2-c2c1c(-c1cccc3ccccc13)nc1ccc(P(=O)(c3ccccc3)c3ccccc3)cc21 [Compound 10g]

>  <Readout name>
pIC50

>  <Recorded measurement>
< 4.30

$$$$
>  <Compound>
O=P(c1ccccc1)(c1ccccc1)c1ccc2c(c1)C1c3ccccc3CC1C(c1ccc(F)cc1F)N2 (stereo not shown)

>  <Readout name>
pIC50

>  <Recorded measurement>
< 4.30

$$$$
>  <Compound>
O=P(c1ccccc1)(c1ccccc1)c1ccc2nc(-c3ccccc3)c3c(c2c1)-c1ccccc1C3

>  <Readout name>
pIC50

>  <Recorded measurement>
< 4.30

$$$$

### Prompt // lookup pIC50 for O=P(c1ccccc1)(c1ccccc1)c1ccc2c(c1)C1c3ccccc3CC1C(c1ccc(C(F)(F)F)cc1)N2 (stereo not shown)
### Response 4.59

### Prompt // lookup pIC50 for O=C1c2ccccc2-c2c1c(-c1cccc(F)c1)nc1ccc(P(=O)(c3ccccc3)c3ccccc3)cc21 [Compound 10d]
### Response < 4.30

### Prompt // lookup pIC50 for O=C1c2ccccc2-c2c1c(-c1ccccc1)nc1ccc(P(=O)(c3ccccc3)c3ccccc3)cc21 [Compound 10a]
### Response < 4.30

* * *

# Assayed target: human TOP1 (Homo sapiens)
# Construct: made in house; host or cells: Saccharomyces cerevisiae TOP1 null strain RS190, plasmid pHT143 (GAL promoter)
# Sequence (P11387 1-765): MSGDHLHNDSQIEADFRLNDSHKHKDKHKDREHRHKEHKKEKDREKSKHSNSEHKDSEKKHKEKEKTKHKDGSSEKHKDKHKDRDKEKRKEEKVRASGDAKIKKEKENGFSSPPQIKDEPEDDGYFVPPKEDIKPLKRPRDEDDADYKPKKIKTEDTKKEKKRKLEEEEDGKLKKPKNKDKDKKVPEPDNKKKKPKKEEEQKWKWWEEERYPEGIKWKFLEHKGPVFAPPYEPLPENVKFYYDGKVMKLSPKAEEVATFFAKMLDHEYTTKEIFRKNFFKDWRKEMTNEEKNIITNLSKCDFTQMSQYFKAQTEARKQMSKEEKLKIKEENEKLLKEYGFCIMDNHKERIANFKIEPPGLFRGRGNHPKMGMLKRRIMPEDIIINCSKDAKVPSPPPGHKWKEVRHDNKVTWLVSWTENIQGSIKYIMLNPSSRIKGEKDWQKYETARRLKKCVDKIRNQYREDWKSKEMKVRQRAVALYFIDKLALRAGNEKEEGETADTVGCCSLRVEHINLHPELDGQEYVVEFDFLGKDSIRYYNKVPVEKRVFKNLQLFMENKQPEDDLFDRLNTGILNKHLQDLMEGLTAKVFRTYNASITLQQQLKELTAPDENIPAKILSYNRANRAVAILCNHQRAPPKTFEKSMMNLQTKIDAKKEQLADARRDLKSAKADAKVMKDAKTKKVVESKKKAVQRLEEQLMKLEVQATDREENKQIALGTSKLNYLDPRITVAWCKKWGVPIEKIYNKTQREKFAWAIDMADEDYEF
# Procedure details: TOP1 supercoiled plasmid DNA relaxation assay
# Format: biochemical
# Details: 1 min reaction; compounds at 100 μM; semiquantitative

>  <Molecule>
O=C1c2ccccc2-c2c1c(-c1ccc(F)c(F)c1)nc1ccc(P(=O)(c3ccccc3)c3ccccc3)cc21 [Compound 10e]

>  <TOP1 Inhibition 1 min>
++

$$$$
>  <Molecule>
O=C1c2ccccc2-c2c1c(-c1cccc(F)c1)nc1ccc(P(=O)(c3ccccc3)c3ccccc3)cc21 [Compound 10d]

>  <TOP1 Inhibition 1 min>
+ (weak inhibition)

$$$$
>  <Molecule>
O=P(c1ccccc1)(c1ccccc1)c1ccc2c(c1)C1c3ccccc3CC1C(c1ccccc1)N2 (stereo not shown)

>  <TOP1 Inhibition 1 min>
++

$$$$
>  <Molecule>
O=P(c1ccccc1)(c1ccccc1)c1ccc2c(c1)C1c3ccccc3CC1C(c1cccc3ccccc13)N2 (stereo not shown)

>  <TOP1 Inhibition 1 min>
+ (weak inhibition)

$$$$

* * *

# System: A549 (carcinomic human alveolar basal epithelial cell)
# Procedure details: CCK-8 cytotoxicity assay, A549
# Assay type: cell-based
# Details: A549 cells, 48h, CCK-8; listed as 9k
# From the text: The cytotoxic effects of the newly synthesized diphenyl(tetrahydro-5H-indeno[2,1-c]quinolin-2-yl)phosphine oxides 8, diphenyl(7H-indeno[2,1-c]quinolin-2-yl)phosphine oxides 9, and diphenyl(7-oxo-7H-indeno[2,1-c]quinolin-2-yl)phosphine oxides 10 derivatives were studied against several human cell lines: A549 (carcinomic human alveolar basal epithelial cell), SKOV3 (human ovarian carcinoma), and HEK293 (human embryonic kidney). […]
Readout name: IC50

### Prompt // lookup IC50 for O=P(c1ccccc1)(c1ccccc1)c1ccc2nc(-c3ccc(Br)cc3)c3c(c2c1)-c1ccccc1C3
### Response > 50 µM
